# Tested on: blood coagulation
# method.description: Phase IV open-label study NeuroAid®/aspirin interaction in healthy volunteers, 5 coagulation tests
# Type: in vivo, human
# settings: 11 healthy volunteers per group; T + 8 hours
measure: D-Dimer, Mean (µg/mL)
Please give a number only; it is taken to be in µg/mL.

Report measured D-Dimer, Mean on blood coagulation; entry: CC(=O)Oc1ccccc1C(=O)O [Aspirin alone, Acetylsalicylic Acid]
0.16

---

# System: blood coagulation
# method.description: Phase IV open-label study NeuroAid®/aspirin interaction in healthy volunteers, 5 coagulation tests
# Assay type: in vivo, human
# settings: 11 healthy volunteers per group; T = 0, before treatment
measure: D-Dimer, Mean (µg/mL)
Please give a number only; it is taken to be in µg/mL.

Fill in reported D-Dimer, Mean for this entry: CC(=O)Oc1ccccc1C(=O)O
0.16
